These entries and their values trace back to ChEMBL document CHEMBL4229382.

# assayRemarks: Safety index, ratio of cytotoxicity against human Caco2 cells at 32 ug/ml after 2 hrs by MTS assay to antibacterial activity against methicillin-resistant Staphylococcus aureus
# Type: toxicity, cell-based
# conditionDescription: Caco-2 cells
property: selectivity ratio at 2 h, 32 ug/ml

> print(dat)
                            structuresmiles   result
1  Cc1nc(-c2ccc(C(C)(C)C)cc2)sc1-c1ccnc(NC(=N)c2cccnc2)n1  8 to 30
2  Cc1nc(-c2ccc(C(C)(C)C)cc2)sc1-c1ccnc(NC(=N)N2CCOCC2)n1  8 to 30
3  Cc1nc(-c2ccc(C(C)(C)C)cc2)sc1-c1ccnc(NCCN)n1  8 to 30

----------
# assayRemarks: Terminal phase volume of distribution at steady state in Sprague-Dawley rat at 5 uM, iv administered as bolus dose by LC-MS/MS analysis
# Type: ADME, organism-based
# conditionDescription: in vivo, read-out: Vbeta
property: Vd at 5 µM (L)

> print(dat)
                            structuresmiles    property  result
1  Cc1nc(-c2ccc(C(C)(C)C)cc2)sc1-c1ccnc(NCCN)n1  Vd at 5 µM    16.4

----------
Below, each entry is listed alongside its reported MIC.
# System: Staphylococcus aureus
# assayRemarks: Antibacterial activity against methicillin-resistant Staphylococcus aureus NRS385 after 18 hrs by broth microdilution assay
# Type: functional
# conditionDescription: NRS385, 18 h
property: MIC (µg/mL)

> print(dat)
                            structuresmiles  unitannotation  result
1  Cc1nc(-c2ccc(C(C)(C)C)cc2)sc1-c1ccnc(NC(=N)c2cccnc2)n1           µg/mL       4
2  Cc1nc(-c2ccc(C(C)(C)C)cc2)sc1-c1ccnc(NC(=N)c2ccccn2)n1           µg/mL       4
3  Cc1nc(-c2ccc(C(C)(C)C)cc2)sc1-c1ccnc(NC(=N)N(C)C)n1           µg/mL       8
4  Cc1nc(-c2ccc(C(C)(C)C)cc2)sc1-c1ccnc(NC(=N)N2CCOCC2)n1           µg/mL       4

----------
# Test system: Staphylococcus aureus
# assayRemarks: Antibacterial activity against methicillin-resistant Staphylococcus aureus NRS123 USA400 after 18 hrs by broth microdilution assay
# Type: functional
# conditionDescription: NRS123 USA400, 18 h
property: MIC

> print(dat)
                            structuresmiles   result
1  Cc1nc(-c2ccc(C(C)(C)C)cc2)sc1-c1ccnc(NC(=N)c2cccnc2)n1  4 µg/mL
2  Cc1nc(-c2ccc(C(C)(C)C)cc2)sc1-c1ccnc(NC(=N)N(C)C)n1  8 µg/mL
3  Cc1nc(-c2ccc(C(C)(C)C)cc2)sc1-c1ccnc(NC(=N)c2ccccn2)n1  2 µg/mL
4  CC(=O)NC[C@H]1CN(c2ccc(N3CCOCC3)c(F)c2)C(=O)O1  1 µg/mL

----------
# Tested on: Enterococcus faecium
# assayRemarks: Bactericidal activity against vancomycin-resistant Enterococcus faecium ATCC 700221 incubated fo 18 hrs followed by re-plating on tryptic soy agar plates at 37 degC for 18 hrs by broth microdilution assay
# conditionDescription: ATCC 700221, 18 h
Each entry below lists one item and its recorded MBC value.

compound	experimentalTarget	limitSign	MBC / µg/mL
Cc1nc(-c2ccc(C(C)(C)C)cc2)sc1-c1ccnc(NC(=N)N2CCOCC2)n1	Enterococcus faecium	=	8
Cc1nc(-c2ccc(C(C)(C)C)cc2)sc1-c1ccnc(NC(=N)c2ccccn2)n1	Enterococcus faecium	=	32
Cc1nc(-c2ccc(C(C)(C)C)cc2)sc1-c1ccnc(NCCN)n1	Enterococcus faecium	=	8
Cc1nc(-c2ccc(C(C)(C)C)cc2)sc1-c1ccnc(NC(=N)N(C)C)n1	Enterococcus faecium	=	16
Cc1nc(-c2ccc(C(C)(C)C)cc2)sc1-c1ccnc(NC(=N)c2cccnc2)n1	Enterococcus faecium	=	16
CN[C@H](CC(C)C)C(=O)N[C@H]1C(=O)N[C@@H](CC(N)=O)C(=O)N[C@H]2C(=O)N[C@H]3C(=O)N[C@H](C(=O)N[C@H](C(=O)O)c4cc(O)cc(O)c4-c4cc3ccc4O)[C@H](O)c3ccc(c(Cl)c3)Oc3cc2cc(c3O[C@@H]2O[C@H](CO)[C@@H](O)[C@H](O)[C@H]2O[C@H]2C[C@](C)(N)[C@H](O)[C@H](C)O2)Oc2ccc(cc2Cl)[C@H]1O [VANCOMYCIN]	Enterococcus faecium	>	64
